Molecular target: GSK3β (H350L) (Homo sapiens (Human))
Sequence (P49841 whole entry, stated change not applied): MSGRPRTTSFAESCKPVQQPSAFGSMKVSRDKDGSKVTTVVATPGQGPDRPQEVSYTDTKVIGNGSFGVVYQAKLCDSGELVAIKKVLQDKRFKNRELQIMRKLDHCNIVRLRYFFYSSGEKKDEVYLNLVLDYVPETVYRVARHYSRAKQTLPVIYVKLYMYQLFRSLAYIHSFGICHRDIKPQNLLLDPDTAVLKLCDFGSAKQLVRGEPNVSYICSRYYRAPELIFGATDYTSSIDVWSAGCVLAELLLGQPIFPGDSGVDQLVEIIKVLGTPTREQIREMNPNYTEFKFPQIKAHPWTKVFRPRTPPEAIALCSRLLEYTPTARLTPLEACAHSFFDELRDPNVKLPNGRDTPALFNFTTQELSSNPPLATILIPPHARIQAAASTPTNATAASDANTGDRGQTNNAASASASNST
Conditions: read-out: GSK3β Ki
property_label: Ki
Please provide the amount together with its unit, number first.

Lab note: need Ki for CC(C)(C)NC(=O)O[C@@H]1CC[C@H](c2cc(NC(=O)Cc3cc(C(F)F)ccn3)n[nH]2)C1 [Example 314] on GSK3β (H350L) (Homo sapiens (Human)), anyone have it? 40.6 nM

// lookup Ki | system=GSK3β (H350L) (Homo sapiens (Human)) | key= CC[C@H](C)NC(=O)O[C@@H]1CC[C@H](c2cc(NC(=O)Cc3ccccc3S(C)(=O)=O)n[nH]2)C1 [Example 370] 50.8 nM

What reported Ki corresponds to CC[C@H](C)NC(=O)O[C@@H]1CC[C@H](c2cc(NC(=O)c3ccnn3CCO)n[nH]2)C1 [Example 53] on GSK3β (H350L) (Homo sapiens (Human))? 45.7 nM

###

Target: CDK2/Cyclin E1 full length (Homo sapiens (Human))
Test: CDK2/Cyclin E1 full length mobility shift assay
pKi: −log10 of the molar value.
Classify by measured pKi: yes if it is equal to or exceeds 9, no if it is smaller.

>  <compound>
O=C(Cc1ccno1)Nc1cc([C@H]2CC[C@@H](OC(=O)NCC3CC3)C2)[nH]n1

>  <label_value>
no

$$$$
>  <compound>
CC(C)(C)NC(=O)O[C@@H]1CC[C@H](c2cc(NC(=O)Cc3cnc(C(F)(F)F)cn3)n[nH]2)C1

>  <label_value>
yes

$$$$
>  <compound>
CCCNC(=O)O[C@H]1CC[C@@H](c2cc(NC(=O)Cc3cn4c(C)csc4n3)n[nH]2)C1

>  <label_value>
no

$$$$
>  <compound>
Cc1ncc(CC(=O)Nc2cc([C@@H]3CC[C@H](OC(=O)NC(C)C)C3)[nH]n2)s1

>  <label_value>
yes

$$$$

Okay, next one:
I'd appreciate it if you could say whether CCC(O)CNC(=O)O[C@@H]1CC[C@H](c2cc(NC(=O)Cc3ccc(OC)cc3)n[nH]2)C1 (single isomer, unassigned) [Example 540] has pKi at least equal to 9. no

###

Target: GSK3β (H350L) (Homo sapiens (Human))
Assay: biochemical
Conditions: GSK3β Ki (nM)
property_label: log10 Ki (log10 of the value in nM)
Scale type: logarithmic (base 10). Underlying Ki unit: nM.

Query: log10 Ki; subject: CCC(CO)CNC(=O)O[C@@H]1CC[C@H](c2cc(NC(=O)Cc3cnc(C)s3)n[nH]2)C1 (single isomer, unassigned) [Example 528] 0.56

Quick check: log10 Ki of CCC(CO)CNC(=O)O[C@@H]1CC[C@H](c2cc(NC(=O)Cc3cc(F)cc(F)c3)n[nH]2)C1 (single isomer, unassigned) ? 1.03

# input compound: CC1(NC(=O)O[C@@H]2CC[C@H](c3cc(NC(=O)Cc4cnc(C(F)(F)F)cn4)n[nH]3)C2)CCOC1 (single isomer, unassigned) [Example 494] ; wanted: its log10 Ki 1.73

I am curious: what log10 Ki value has been reported for Cc1ncc(CC(=O)Nc2cc([C@H]3CC[C@@H](OC(=O)NC(C)CC(F)(F)F)C3)[nH]n2)s1 (single isomer, unassigned) [Example 80] ? 0.95

Please report the recorded log10 Ki for COCc1cc(C(=O)Nc2cc([C@H]3CC[C@@H](OC(=O)NC(C)CC(F)(F)F)C3)[nH]n2)n(C)n1 (single isomer, unassigned) [Example 10] . 2.00

For the compound shown here, Cc1cnc(CC(=O)Nc2cc([C@@H]3CC[C@H](OC(=O)NC4(C)CCOC4)C3)[nH]n2)o1 (single isomer, unassigned) [Example 476] , give the reported log10 Ki. 1.49

// data source = patent US11014911B2
